molecular target: Cathepsin S (Homo sapiens, UniProt P25774); test: Cathepsin S inhibition assay (fluorogenic peptide substrate); format: biochemical; conditions: Table II, compounds of Formula I; read-out: Ki Cat. S
Sequence (P25774 115-331, species assumed): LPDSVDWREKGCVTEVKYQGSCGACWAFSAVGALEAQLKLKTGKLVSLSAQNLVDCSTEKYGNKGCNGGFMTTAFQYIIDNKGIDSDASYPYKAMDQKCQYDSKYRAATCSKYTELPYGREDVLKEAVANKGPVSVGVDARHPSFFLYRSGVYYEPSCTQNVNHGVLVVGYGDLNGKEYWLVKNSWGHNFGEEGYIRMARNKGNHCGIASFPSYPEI
pKi: −log10 of the molar value.

{"columns": ["molecule", "tested-system", "pKi"],
 "data": [
  ["N#Cc1cccc(C(=O)N[C@@H](CC2CCCCC2)C(=O)NCCNc2ccc(F)cc2)c1 [Compound 321]", "Cathepsin S (Homo sapiens, UniProt P25774)", "> 6.00"],
  ["COc1ccc(NCCNC(=O)[C@H](CC2CCCCC2)NC(=O)c2ccc(-c3ccc4c(c3)OCO4)cc2)cc1", "Cathepsin S (Homo sapiens, UniProt P25774)", "> 7.00"],
  ["O=C(N[C@@H](CC1CCCCC1)C(=O)NCCNc1ccc(OC(F)(F)F)cc1)c1cccc(-c2ccccc2Cl)c1", "Cathepsin S (Homo sapiens, UniProt P25774)", "> 7.00"],
  ["COc1ccc(NCCNC(=O)C(NC(=O)c2cccc(C)c2)c2ccccc2C)cc1 (stereo not shown)", "Cathepsin S (Homo sapiens, UniProt P25774)", "> 6.00"],
  ["O=C(N[C@@H](CC1CCCCC1)C(=O)NCCNc1ccc(OC(F)(F)F)cc1)c1ccc(-c2ccccc2)cc1", "Cathepsin S (Homo sapiens, UniProt P25774)", "> 7.00"],
  ["O=C(N[C@@H](CC1CCCCC1)C(=O)NCCNc1ccc(F)cc1)c1ccco1", "Cathepsin S (Homo sapiens, UniProt P25774)", "> 7.00"],
  ["COc1cc(OC)nc(-c2ccc(C(=O)N[C@@H](CC3CCCCC3)C(=O)NCCNc3ccc(OC(F)(F)F)cc3)cc2)n1", "Cathepsin S (Homo sapiens, UniProt P25774)", "> 6.00"]
]}

* * *

target: Cathepsin K (Homo sapiens); assay: Cathepsin K inhibition assay (fluorogenic peptide substrate); selectivity ratio vs cathepsin S; type: biochemical; conditions: ratio of cathepsin K inhibition constant to cathepsin S inhibition constant; Table II
Sequence (P43235 115-329, species assumed): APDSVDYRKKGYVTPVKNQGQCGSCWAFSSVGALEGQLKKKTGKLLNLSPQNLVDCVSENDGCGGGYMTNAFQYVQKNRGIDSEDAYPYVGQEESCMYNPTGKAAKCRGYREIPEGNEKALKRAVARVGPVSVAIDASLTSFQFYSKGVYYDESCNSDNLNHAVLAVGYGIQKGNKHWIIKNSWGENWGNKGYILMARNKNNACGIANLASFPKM

{"columns": ["compound", "Selectivity for Cat. S over Cat. K"],
 "data": [
  ["COc1ccc(NCCNC(=O)[C@H](Cc2ccc(F)c(F)c2)NC(=O)c2cccc(C)c2)cc1 [Compound 237]", "+++ (+++, >1000)"],
  ["O=C(N[C@@H](CC1CCCCC1)C(=O)NCCNc1ccc(OC(F)(F)F)cc1)c1ccc(-c2ccc(OC(F)(F)F)cc2)o1 [Compound 215]", "+++ (+++, >1000)"]
]}

* * *

target: Cathepsin S (Homo sapiens, UniProt P25774); assay: Cathepsin S inhibition assay (fluorogenic peptide substrate); type: biochemical; conditions: Table II, compounds of Formula I; read-out: Ki Cat. S
# reported Ki; entries follow
value-kind: Ki

{"columns": ["compound", "value-kind", "reported-value"],
 "data": [
  ["COc1ccc(NCCNC(=O)[C@H](Cc2ccc(Oc3ccc(OC)cc3)cc2)NC(=O)c2cccc(C)c2)cc1 [Compound 328]", "Ki", "< 1000 nM"],
  ["N#Cc1cccc(C(=O)N[C@@H](CC2CCCCC2)C(=O)NCCNc2ccc(F)cc2)c1 [Compound 324]", "Ki", "< 100 nM"],
  ["O=C(N[C@@H](CC1CCCCC1)C(=O)NCCNc1ccc(OC(F)(F)F)cc1)C1CCCN(c2ncc(Br)cn2)C1 (stereo partly shown) [Compound 93]", "Ki", "< 1000 nM"],
  ["COc1ccc(NCCNC(=O)[C@H](Cc2cc(F)cc(F)c2)NC(=O)c2cccc(C)c2)cc1 [Compound 230]", "Ki", "< 100 nM"]
]}
